system: HeLa; test: Cell proliferation measurement (Cell Titer Glo, 72 h); type: cell-based; conditions: Homo sapiens, cervical cancer
pIC50: −log10 of the molar value.
Assay readout: pIC50

* C[C@@H]1CC(=O)NN=C1c1cc(F)c(N2CCOCC2)c(Cl)c1 | 9.49

----------
test system: HeLa cells; experiment: Compound sensitivity testing in cell lines (cell viability, 48 h); type: cell-based, human; conditions: Homo sapiens, 48 h
Assay readout: EC50 (nM)

• C[C@@H]1CC(=O)NN=C1c1cc(F)c(N2CCOCC2)c(Cl)c1 = 1.1

----------
# key: entry, value: Tm
target: PDE3A(677-1141) (Homo sapiens, UniProt Q14432); construct: purified PDE3A catalytic domain, PDE3A(677-1141); experiment: Differential scanning fluorimetry (DSF) binding to purified PDE3A catalytic domain; conditions: 5 μM PDE3A, 100 μM compound
Sequence (Q14432 677-1141): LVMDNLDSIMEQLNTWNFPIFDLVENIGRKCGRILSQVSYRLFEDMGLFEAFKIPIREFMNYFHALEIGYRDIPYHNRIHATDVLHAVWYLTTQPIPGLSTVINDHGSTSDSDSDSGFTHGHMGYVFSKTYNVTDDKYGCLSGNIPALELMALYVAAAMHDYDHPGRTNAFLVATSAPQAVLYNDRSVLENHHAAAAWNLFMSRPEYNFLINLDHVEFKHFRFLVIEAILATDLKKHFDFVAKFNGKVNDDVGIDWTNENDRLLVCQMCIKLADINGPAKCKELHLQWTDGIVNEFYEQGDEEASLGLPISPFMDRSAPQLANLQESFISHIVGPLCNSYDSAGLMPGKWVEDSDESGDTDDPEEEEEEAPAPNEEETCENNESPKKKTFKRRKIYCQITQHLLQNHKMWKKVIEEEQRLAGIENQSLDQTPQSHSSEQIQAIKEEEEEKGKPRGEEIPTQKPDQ
Assay readout: Tm

• CCN(CC)c1ccc(C2=NNC(=O)CC2C)cc1[N+](=O)[O-] (stereo not shown) [DNMDP] = 58.4 ± 0.0 °C
• O=C1CN2Cc3c(ccc(Cl)c3Cl)N=C2N1 [Anagrelide, reference compound] = 56.6 ± 0.0 °C
• COc1cc2c(cc1OC)-c1c/c(=N\c3c(C)cc(C)cc3C)n(C)c(=O)n1CC2 [Trequinsin, reference compound] = 66.2 ± 0.0 °C
• C[C@@H]1CC(=O)NN=C1c1ccc(N2CCOCC2)c(F)c1 (single isomer, unassigned) [Compound 3] = 59.0 ± 0.0 °C
